- Target: potassium channel hERG (Homo sapiens (Human))
- Sequence (Q12809 whole entry): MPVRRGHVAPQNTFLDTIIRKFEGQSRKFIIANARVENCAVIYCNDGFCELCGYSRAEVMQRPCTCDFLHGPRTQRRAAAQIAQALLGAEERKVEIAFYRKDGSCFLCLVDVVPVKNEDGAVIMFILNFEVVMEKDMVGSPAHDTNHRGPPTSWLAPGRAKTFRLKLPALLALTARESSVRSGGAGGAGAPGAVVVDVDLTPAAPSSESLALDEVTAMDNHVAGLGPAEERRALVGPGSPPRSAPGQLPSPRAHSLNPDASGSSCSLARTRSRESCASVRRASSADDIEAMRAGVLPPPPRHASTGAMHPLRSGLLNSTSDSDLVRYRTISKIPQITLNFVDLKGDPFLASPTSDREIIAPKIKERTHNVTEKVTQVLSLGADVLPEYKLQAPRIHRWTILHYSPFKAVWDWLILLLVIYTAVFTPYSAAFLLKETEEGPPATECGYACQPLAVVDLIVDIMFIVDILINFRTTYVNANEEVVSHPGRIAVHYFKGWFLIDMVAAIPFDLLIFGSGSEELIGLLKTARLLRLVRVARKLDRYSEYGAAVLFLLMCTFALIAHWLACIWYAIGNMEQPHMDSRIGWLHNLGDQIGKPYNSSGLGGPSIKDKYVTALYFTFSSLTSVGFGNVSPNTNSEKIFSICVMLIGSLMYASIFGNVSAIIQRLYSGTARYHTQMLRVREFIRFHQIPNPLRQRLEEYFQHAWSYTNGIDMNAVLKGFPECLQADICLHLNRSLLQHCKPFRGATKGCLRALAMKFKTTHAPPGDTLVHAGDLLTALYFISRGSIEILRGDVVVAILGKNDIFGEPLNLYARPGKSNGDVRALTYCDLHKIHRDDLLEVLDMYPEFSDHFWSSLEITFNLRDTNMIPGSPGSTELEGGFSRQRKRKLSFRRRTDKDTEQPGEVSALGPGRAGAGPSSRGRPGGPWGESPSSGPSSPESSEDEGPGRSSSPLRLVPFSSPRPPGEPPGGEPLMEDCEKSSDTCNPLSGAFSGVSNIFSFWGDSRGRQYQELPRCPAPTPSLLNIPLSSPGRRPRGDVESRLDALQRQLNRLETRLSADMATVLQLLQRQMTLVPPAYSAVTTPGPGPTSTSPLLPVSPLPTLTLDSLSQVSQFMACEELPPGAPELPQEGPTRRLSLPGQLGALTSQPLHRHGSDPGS
- Assay explanation: In vitro testing for hERG inhibition
- Format: biochemical
- Test settings: in vitro toxicity potassium channel hERG
Readout kind: IC50 (µM)

>>> test_value("CC(CC(C)(C)c1ccc(F)cc1)N1CCC(O)CC1 (stereo not drawn) [Compound 25]")
4
>>> test_value("COCCOCCC1CCN(C(C=C(C)C)CC(C)(C)c2ccc(C(F)(F)F)cc2)CC1 (stereo not drawn) [Compound 40]")
9.6
>>> test_value("CC(C)=CC(COc1ccc(F)cc1)N1CCC(O)CC1 (stereo not drawn) [Compound 18]")
29
>>> test_value("CC(C)=CC(CC(C)(C)c1ccc(F)cc1)N1CCC(CCOC2CCOC2)CC1 (stereo not drawn) [Compound 179]")
4
>>> test_value("CC(C)=CC(CC(C)(C)c1ccc(OC(C)C)cc1)N1CCC(C)(O)CC1 (stereo not drawn) [Compound 180]")
20
>>> test_value("CC(C)=CC(CC(C)(C)c1ccc(C(F)(F)F)cc1)N1CCC(N2CCCCC2)CC1 (stereo not drawn) [Compound 127]")
3.3
>>> test_value("CC(C)=CC(CC(C)(C)c1ccc(C(F)(F)F)cc1)N1CCN(C(=O)OC(C)(C)C)CC1 (stereo not drawn) [Compound 200]")
83
>>> test_value("COCC1CCCN1C(C=C(C)C)CC(C)(C)c1ccccc1 (stereo not drawn) [Compound 252]")
7
>>> test_value("CC(C)=CC(CC(C)(C)c1ccc(C(F)(F)F)cc1)N1CCC2(CC1)OCc1ccccc12 (stereo not drawn) [Compound 189]")
5.7
>>> test_value("CC(CC(C)(C)c1ccc(Cl)cc1)N1CCC(O)C1 (stereo not drawn) [Compound 250]")
28
>>> test_value("CC(CC(C)(C)c1ccc(F)cc1)N1CCC(CO)CC1 (stereo not drawn) [Compound 19]")
37
>>> test_value("CCC(C)(O)CCNC(C)CC(C)(C)c1ccc(C(F)(F)F)cc1 (stereo not drawn) [Compound 12]")
0.97
>>> test_value("COC[C@@H]1CCCN1[C@@H](C=C(C)C)CC(C)(C)c1ccc(F)cc1 [Compound 244]")
4.8
>>> test_value("CCCCC1(O)CCN(C(C=C(C)C)CC(C)(C)c2ccc(C(F)(F)F)cc2)CC1 (stereo not drawn) [Compound 212]")
27
>>> test_value("CC(C)=CC(CC(C)(C)c1ccc(C(F)(F)F)cc1)N1CCC(C)(O)CC1 (stereo not drawn) [Compound 129]")
24
>>> test_value("CC(C)=CC(CC(C)(C)c1ccc(Cl)cc1)N1CCC(CCO)CC1 (stereo not drawn) [Compound 53]")
13.3
>>> test_value("CC(CC(C)(C)c1ccc(Cl)cc1)N1CCC(O)CC1 (stereo not drawn) [Compound 20]")
1.7
>>> test_value("CC(C)=CC(CC(C)(C)c1ccc(Cl)cc1)N1CCC(C)(O)CC1 (stereo not drawn) [Compound 73]")
24

###

- Assay explanation: log P
- Type: physicochemical
- Source text: The term “log P” refers to the partition coefficient of a compound. The partition coefficient is the ratio of concentrations of un-ionized compound in each of two solution phases, for example, octanol and water. To measure the partition coefficient of ionizable solute compounds, the pH of the aqueous phase is adjusted such that the predominant form of the compound is un-ionized. […]
Reported log P is given for each of the following molecules.
Readout kind: log P

>>> test_value("CC(C)(CCN1CC[C@@H](O)C1)c1ccc(Cl)cc1")
3.1
>>> test_value("COC1CCN(CCC(C)(C)c2ccccc2)CC1")
3.2
>>> test_value("CC(C)=CC(CC(C)(C)c1ccc(C)cc1)NCC1CCCCC1 (stereo not drawn)")
6.9
>>> test_value("CC(C)=CC(CCc1ccc(Cl)cc1)N1CCCCC1 (stereo not drawn)")
5.52
>>> test_value("CC(C)=CC(CC(C)(C)c1ccc(F)cc1)N1CCC(N2CCCC2)CC1 (stereo not drawn)")
5.23
>>> test_value("COC[C@@H]1CCCN1CCC(C)(C)c1ccc(F)cc1")
3.8
>>> test_value("CC(C)=CC(CC(C)(C)c1ccc(Cl)cc1)N1CCC(CCOC2CCOC2)CC1 (stereo not drawn)")
5.95
>>> test_value("COCCCC1CCN(CCC(C)(C)c2ccc(C(F)(F)F)cc2)CC1")
5.35
>>> test_value("COC(=O)C1CCN(CCC(C)(C)c2ccc(Cl)cc2)CC1")
4.06
